Source listed as paper PMC9174199.

- system name: T1, GST-MTA1 (residues 171-372)
- T1 chain: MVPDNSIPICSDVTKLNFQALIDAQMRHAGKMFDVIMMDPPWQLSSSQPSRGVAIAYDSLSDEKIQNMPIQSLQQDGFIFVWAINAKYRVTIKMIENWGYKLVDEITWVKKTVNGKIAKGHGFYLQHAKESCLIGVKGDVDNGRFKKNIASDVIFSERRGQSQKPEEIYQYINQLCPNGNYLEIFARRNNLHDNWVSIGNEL
- method: GST pull-down
- test settings: chain shown with the change;; parent: 100
Recorded percent of parent for the following binders
For clarity, give the value followed by its unit.

Example cases with answers are listed next.
binder	reported metric	observed measurement
Paramecium tetraurelia MTA9 (PteMTA9), untagged V219A (protein) MGKNQRESLRMRLRYNEPGSENKRINYFKLNQGYDITEDDSEYMDEQDSYKAFKKIRKYKTKSKEDKVTCDNLEVLLQWKGSINCQSYETDQKKIVVLKKILGTDLSQYAKGVQGIFIDNLFKKDLKNLDISKKLISNGILFIWSDKSLINEILETMENKGFTYIENLVVVQLSLEQALEELNKHMKIEQTEDAVLDNLDFLQQKVQVKDLILHRPSKALNQSKQVLIMFRKFDEQKSQLELRHQRTPDVLFDIVNNGKSCLKTKEYIYQTIETLLPKSQLMEIFAQKDQPRKGWISVCENK	percent of parent	45%
Paramecium tetraurelia MTA9 (PteMTA9), untagged K218A (protein) MGKNQRESLRMRLRYNEPGSENKRINYFKLNQGYDITEDDSEYMDEQDSYKAFKKIRKYKTKSKEDKVTCDNLEVLLQWKGSINCQSYETDQKKIVVLKKILGTDLSQYAKGVQGIFIDNLFKKDLKNLDISKKLISNGILFIWSDKSLINEILETMENKGFTYIENLVVVQLSLEQALEELNKHMKIEQTEDAVLDNLDFLQQKVQVKDLILHRPSAVLNQSKQVLIMFRKFDEQKSQLELRHQRTPDVLFDIVNNGKSCLKTKEYIYQTIETLLPKSQLMEIFAQKDQPRKGWISVCENK	percent of parent	99%

Qu. Return reported percent of parent; argument: Paramecium tetraurelia MTA9 (PteMTA9), untagged L220A (protein) MGKNQRESLRMRLRYNEPGSENKRINYFKLNQGYDITEDDSEYMDEQDSYKAFKKIRKYKTKSKEDKVTCDNLEVLLQWKGSINCQSYETDQKKIVVLKKILGTDLSQYAKGVQGIFIDNLFKKDLKNLDISKKLISNGILFIWSDKSLINEILETMENKGFTYIENLVVVQLSLEQALEELNKHMKIEQTEDAVLDNLDFLQQKVQVKDLILHRPSKVANQSKQVLIMFRKFDEQKSQLELRHQRTPDVLFDIVNNGKSCLKTKEYIYQTIETLLPKSQLMEIFAQKDQPRKGWISVCENK
Ans. 73%
